Consider the following molecules; for each one, report its IC50.
Tested on: NAMALVA
Experiment: Cytotoxicity against human NAMALWA cells assessed as reduction in cell viability after 5 days by WST-8 assay
Assay type: functional, cell-based
Conditions: 120 h
The answer is to be given in pM; state only the numeric part.

Query block: Supply IC50 measured with NAMALVA for `COc1cc2c(cc1OCCCC(=O)Nc1cn(C)c(C(=O)Nc3ccc(-c4cc(C(=O)NCC(C)(C)SSC)n(C)c4)cc3)n1)N=C[C@@H]1Cc3ccccc3N1C2=O` .
Result block: 10

Query block: Name the value of IC50 reported for `COc1cc2c(cc1OCCCC(=O)Nc1cc(C(=O)Nc3ccc(-c4cc(C(=O)NCC(C)(C)SSC)n(C)c4)cc3)n(C)c1)N=C[C@@H]1Cc3ccccc3N1C2=O` when tested on NAMALVA.
Result block: 30

Query block: Given `COC(=O)CCNC(=O)c1cc2cc(NC(=O)c3nc(NC(=O)CCCOc4cc5c(cc4OC)C(=O)N4c6ccccc6C[C@H]4C=N5)cn3C)ccc2o1` , report its IC50 on NAMALVA.
Result block: 60

----------
System: NAMALVA
Assay: Cytotoxicity against human NAMALWA cells assessed as reduction in cell viability after 5 days by WST-8 assay
Assay type: functional, cell-based
Conditions: 120 h
So basically, if IC50 comes in under 0.03 nM it's Criterion met, and if it's 0.03 nM or more it's Criterion not met.

Query block: Lab note: confirm whether the reported IC50 for this compound is below 0.03 nM, equality not counting. compound: `COC(=O)CCNC(=O)c1cc2cc(NC(=O)c3cc(NC(=O)CCCOc4cc5c(cc4OC)C(=O)N4c6ccccc6C[C@H]4C=N5)cn3C)ccc2o1`
Result block: Criterion not met

Query block: # TODO verify IC50 < 0.03 nM strictly for this compound: `COc1cc2c(cc1OCCCC(=O)Nc1cc(C(=O)Nc3ccc4sc(C(=O)NCC(C)(C)SSC)cc4c3)n(C)c1)N=C[C@@H]1Cc3ccccc3N1C2=O`
Result block: Criterion met

Query block: Bench note: check whether `COc1cc2c(cc1OCCCC(=O)Nc1cn(C)c(C(=O)Nc3ccc(N)cc3)n1)N=C[C@@H]1Cc3ccccc3N1C2=O` shows IC50 below 0.03 nM
Result block: Criterion not met

Query block: is_below(IC50, 0.03 nM) for `COc1cc2c(cc1OCCCC(=O)Nc1cn(C)c(C(=O)Nc3ccc4sccc4c3)n1)N=C[C@@H]1Cc3ccccc3N1C2=O` ?
Result block: Criterion met

Query block: IC50 under 0.03 nM? Item: `COc1cc2c(cc1OCCCC(=O)Nc1cn(C)c(C(=O)Nc3ccc(-c4cc(C(=O)NCC(C)(C)SSC)n(C)c4)cc3)n1)N=C[C@@H]1Cc3ccccc3CN1C2=O`
Result block: Criterion met

----------
System: NAMALVA
Assay: Cytotoxicity against human NAMALWA cells assessed as reduction in cell viability after 5 days by WST-8 assay
Assay type: functional, cell-based
Conditions: 120 h
readout: IC50 (nM)
Field: numeric (nM). Do not append units.

Query block: Write IC50 of `COC(=O)c1cc2cc(NC(=O)c3cc(NC(=O)CCCOc4cc5c(cc4OC)C(=O)N4c6ccccc6C[C@H]4C=N5)cn3C)ccc2s1` ; system used: NAMALVA
Result block: 0.02

Query block: Report its IC50 with NAMALVA as the test system: `COC(=O)CCNC(=O)c1cc2cc(NC(=O)c3cc(NC(=O)CCCOc4cc5c(cc4OC)C(=O)N4c6ccccc6C[C@H]4C=N5)cn3C)ccc2s1`
Result block: 0.03

Query block: Look up and report measured IC50 (NAMALVA) for the following compound: `COC(=O)CCNC(=O)c1cc2cc(NC(=O)c3nc(NC(=O)CCCOc4cc5c(cc4OC)C(=O)N4c6ccccc6C[C@H]4C=N5)cn3C)ccc2s1`
Result block: 0.01

Query block: Please report the measured IC50 for `COc1cc2c(cc1OCCCC(=O)Nc1cn(C)c(C(=O)Nc3ccc(NC(=O)CCC(C)(C)SSC)cc3)n1)N=C[C@@H]1Cc3ccccc3N1C2=O` tested on NAMALVA.
Result block: 0.03

Query block: Recall the reported IC50 of `COc1cc2c(cc1OCCCC(=O)Nc1cn(C)c(C(=O)Nc3ccc4sc(C(=O)NCC(C)(C)SSC)cc4c3)n1)N=C[C@@H]1Cc3ccccc3N1C2=O` when tested on NAMALVA.
Result block: 0.03

Query block: Provide IC50, system NAMALVA, entry `COc1cc2c(cc1OCCCC(=O)Nc1cc(C(=O)Nc3ccc4sc(C(=O)NCC(C)(C)SSC)cc4c3)n(C)c1)N=C[C@@H]1Cc3ccccc3CN1C2=O`
Result block: 0.002
